System: DMS-114 complex spheroids with HUVEC/MSC, growth % test/control
Assay: Anticancer human tumor DMS-114 cell line growth inhibition [AhR];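 note: spheroids exposed to agents for 7 days before readout; 100% = DMSO vehicle control wells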
Details: second compound 10 µM; first compound 0.316 µM; hits give low values
Text: Multicellular complex tumor spheroid response to aryl hydrocarbon receptor antagonists in combination with a variety of drugs and investigational agents in selected tumor cell lines […] Compounds. […] If the clinical Cmax for an agent had not been determined, the highest concentration tested was 10 microM (Table 1). […]
quantityKind: viability, T/C (%)
The reply should be a number in %, with the unit left off.

In the examples that follow, each entry is paired with its recorded viability, T/C.
CC1COCCN1c1cc(C2(S(C)(=N)=O)CC2)nc(-c2ccnc3[nH]ccc23)n1 (stereo unspecified) + Cc1ccccc1N=Nc1ccc(NC(=O)c2ccnn2C)c(C)c1: 96.2
O=C(C=Cc1cccc(S(=O)(=O)Nc2ccccc2)c1)NO + Cc1cncc(-c2nc(NCCc3c[nH]c4ccccc34)c3ncn(C(C)C)c3n2)c1: 20.1
COc1cc(C2c3cc4c(cc3C(OC3OC5COC(C)OC5C(O)C3O)C3COC(=O)C23)OCO4)cc(OC)c1O (stereo unspecified) + Cc1ccccc1N=Nc1ccc(NC(=O)c2ccnn2C)c(C)c1: 82.7

## Task I'd like to know its viability, T/C. The compound in question is Nc1ccccc1NC(=O)c1ccc(CNC(=O)OCc2cccnc2)cc1 + CC(CO)NC(=O)c1cc(-c2ccc(Cl)cc2)nn(-c2cnn(C)c2)c1=O
## Result 69.2

## Task I'd like to know its viability, T/C. The compound in question is O=C(c1cc(Cc2n[nH]c(=O)c3ccccc23)ccc1F)N1CCN(C(=O)C2CC2)CC1 + Cc1cncc(-c2nc(NCCc3c[nH]c4ccccc34)c3ncn(C(C)C)c3n2)c1
## Result 35.3

## Task I'd like to know its viability, T/C. The compound in question is Nc1ncn(C2CC(O)C(CO)O2)c(=O)n1 (stereo unspecified) + CC(CO)NC(=O)c1cc(-c2ccc(Cl)cc2)nn(-c2cnn(C)c2)c1=O
## Result 91.8

## Task I'd like to know its viability, T/C. The compound in question is COc1cc(Nc2ncc3c(n2)-c2ccc(Cl)cc2C(c2c(F)cccc2OC)=NC3)ccc1C(=O)O + Cc1ccccc1N=Nc1ccc(NC(=O)c2ccnn2C)c(C)c1
## Result 84.7

## Task I'd like to know its viability, T/C. The compound in question is COc1cc(Nc2ncc3c(n2)-c2ccc(Cl)cc2C(c2c(F)cccc2OC)=NC3)ccc1C(=O)O + Cc1cncc(-c2nc(NCCc3c[nH]c4ccccc34)c3ncn(C(C)C)c3n2)c1
## Result 19

## Task I'd like to know its viability, T/C. The compound in question is O=C(c1cc(Cc2n[nH]c(=O)c3ccccc23)ccc1F)N1CCN(C(=O)C2CC2)CC1 + CC(CO)NC(=O)c1cc(-c2ccc(Cl)cc2)nn(-c2cnn(C)c2)c1=O
## Result 87.8

## Task I'd like to know its viability, T/C. The compound in question is CC1(C)CCC(CN2CCN(c3ccc(C(=O)NS(=O)(=O)c4ccc(NCC5CCOCC5)c([N+](=O)[O-])c4)c(Oc4cnc5[nH]ccc5c4)c3)CC2)=C(c2ccc(Cl)cc2)C1 + Cc1ccccc1N=Nc1ccc(NC(=O)c2ccnn2C)c(C)c1
## Result 101

## Task I'd like to know its viability, T/C. The compound in question is CC1(C)CCC(CN2CCN(c3ccc(C(=O)NS(=O)(=O)c4ccc(NCC5CCOCC5)c([N+](=O)[O-])c4)c(Oc4cnc5[nH]ccc5c4)c3)CC2)=C(c2ccc(Cl)cc2)C1 + Cc1cncc(-c2nc(NCCc3c[nH]c4ccccc34)c3ncn(C(C)C)c3n2)c1
## Result 58.3
